target: Glucocorticoid receptor (Homo sapiens); assay: Transrepression activity at glucocorticoid receptor in human H292 cells assessed as inhibition of TNF-induced IL8 production; type: cell-based
Sequence (P04150 whole entry): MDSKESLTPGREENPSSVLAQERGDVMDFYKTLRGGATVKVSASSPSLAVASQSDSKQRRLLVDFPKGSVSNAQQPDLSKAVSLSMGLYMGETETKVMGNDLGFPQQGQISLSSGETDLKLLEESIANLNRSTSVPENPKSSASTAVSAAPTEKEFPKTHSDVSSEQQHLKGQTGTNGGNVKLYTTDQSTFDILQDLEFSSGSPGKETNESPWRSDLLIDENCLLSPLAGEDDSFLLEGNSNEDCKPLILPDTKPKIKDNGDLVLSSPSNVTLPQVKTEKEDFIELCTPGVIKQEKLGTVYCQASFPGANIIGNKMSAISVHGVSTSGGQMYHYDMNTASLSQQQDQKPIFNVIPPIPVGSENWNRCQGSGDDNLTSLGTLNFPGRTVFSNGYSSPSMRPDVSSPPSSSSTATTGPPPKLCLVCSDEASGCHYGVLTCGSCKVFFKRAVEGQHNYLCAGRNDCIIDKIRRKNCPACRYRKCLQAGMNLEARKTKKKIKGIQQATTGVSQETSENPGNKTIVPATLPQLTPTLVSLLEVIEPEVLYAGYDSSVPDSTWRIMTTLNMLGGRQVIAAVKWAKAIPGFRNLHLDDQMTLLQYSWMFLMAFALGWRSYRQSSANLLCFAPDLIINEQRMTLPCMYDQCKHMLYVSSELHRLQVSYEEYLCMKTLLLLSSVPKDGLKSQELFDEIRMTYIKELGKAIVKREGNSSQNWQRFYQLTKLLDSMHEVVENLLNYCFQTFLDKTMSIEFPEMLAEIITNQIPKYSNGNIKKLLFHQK
Mark each entry 1 if its IC50 sits below 0.002 µM, and 0 for all others.

1. C[C@]12Cc3cnn(C4CCCCC4)c3C=C1CC[C@@H]1[C@@H]2[C@@H](O)C[C@@]2(C)[C@H]1CC[C@]2(O)C(=O)CO ... 0
2. C[C@]12Cc3cnn(C4CCCCC4)c3C=C1CC[C@@H]1[C@@H]2[C@@H](O)C[C@@]2(C)[C@H]1CC[C@]2(O)C(=O)CSc1ccc2ccccc2n1 ... 0
3. C[C@]12Cc3cnn(-c4ccccn4)c3C=C1CC[C@@H]1[C@@H]2[C@@H](O)C[C@@]2(C)[C@H]1CC[C@]2(O)C(=O)CSc1nc2ccccc2s1 ... 0
4. C[C@]12Cc3cnn(-c4ccccc4)c3C=C1CC[C@@H]1[C@@H]2[C@@H](O)C[C@@]2(C)[C@H]1CC[C@]2(O)C(=O)CO ... 1
5. Cc1nc(SCC(=O)[C@@]2(O)CC[C@H]3[C@@H]4CCC5=CC(=O)CC[C@]5(C)[C@H]4[C@@H](O)C[C@@]32C)sc1C ... 0

Data origin: ChEMBL document CHEMBL2021850
